# Measured target: T1, 4H591-bA
# T1 chain: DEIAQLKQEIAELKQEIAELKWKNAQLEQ
# Experiment summary: two-hybrid library CCNG1;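 further: natural log of median RNA to DNA barcode read ratio; higher means stronger binding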
Measure name: interaction score

The following binders have reported results that may help.
{"columns": ["Binder", "Measure name", "Numeric result"],
 "data": [
  ["DENAQLKQENAELEQKIAELKWKIAQLKQ [4H1710-bA]", "interaction score", -1.11],
  ["DKNAQLEQEIAELKQKIAELEWKNAQLEQ [4H3175-bA]", "interaction score", -1.55],
  ["DENAQLEQEIAELEQKNAELKWEIAQLEQ [4H1081-bA]", "interaction score", -0.855],
  ["DENAQLEQKIAELKQEIAELEWENAQLKQ [4H1348-bA]", "interaction score", -1.02],
  ["DENAQLKQKNAELKQEIAELEWEIAQLEQ [4H1985-bA]", "interaction score", -1.46],
  ["DENAQLKQKIAELKQKIAELKWENAQLEQ [4H1899-bA]", "interaction score", -1.45]
]}

I: DKNAQLEQENAELKQEIAELKWKIAQLEQ [4H3277-bA]
II: DKNAQLEQKNAELEQEIAELEWKIAQLKQ [4H3462-bA]
III: DKNAQLKQEIAELEQKIAELKWENAQLKQ [4H3628-bA]
IV: DEIAQLKQEIAELKQEIAELKWKNAQLEQ [4H591-bA]
Please put the entries in order of rising interaction score. Returns: the labels arranged in the requested order.
I, III, II, IV
(I: -1.19, III: -0.511, II: 0.153, IV: 1.45)
